Provide the recorded Kd for the entries that follow.
# System under test: Histone acetyltransferase KAT2B (Homo sapiens, UniProt Q92831)
# Sequence (Q92831 whole entry): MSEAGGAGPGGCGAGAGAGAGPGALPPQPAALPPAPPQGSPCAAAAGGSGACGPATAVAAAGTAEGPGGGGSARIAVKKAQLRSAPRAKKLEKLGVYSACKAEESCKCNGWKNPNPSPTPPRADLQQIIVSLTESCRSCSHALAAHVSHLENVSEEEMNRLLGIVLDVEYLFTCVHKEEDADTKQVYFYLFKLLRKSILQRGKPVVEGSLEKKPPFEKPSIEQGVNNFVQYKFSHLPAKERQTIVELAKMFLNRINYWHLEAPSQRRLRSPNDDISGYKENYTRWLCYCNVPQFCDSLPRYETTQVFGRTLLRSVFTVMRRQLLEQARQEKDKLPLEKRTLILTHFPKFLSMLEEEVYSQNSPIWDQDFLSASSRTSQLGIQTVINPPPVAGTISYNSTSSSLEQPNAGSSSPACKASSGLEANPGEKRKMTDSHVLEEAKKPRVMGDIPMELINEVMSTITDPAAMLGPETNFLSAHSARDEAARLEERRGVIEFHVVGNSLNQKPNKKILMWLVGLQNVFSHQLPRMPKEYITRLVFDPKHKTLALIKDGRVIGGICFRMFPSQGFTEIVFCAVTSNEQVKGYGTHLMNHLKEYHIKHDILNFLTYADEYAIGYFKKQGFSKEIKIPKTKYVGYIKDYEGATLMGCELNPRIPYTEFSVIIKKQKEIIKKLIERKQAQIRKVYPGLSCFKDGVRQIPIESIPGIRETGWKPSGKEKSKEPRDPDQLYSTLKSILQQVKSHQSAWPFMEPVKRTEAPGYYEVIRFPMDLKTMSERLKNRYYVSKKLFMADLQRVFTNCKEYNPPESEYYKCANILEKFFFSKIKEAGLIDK
# Assay method text: Binding affinity to PCAF (unknown origin) by BROMOscan method
Answers are plain numbers, in nM.

{"columns": ["Smiles entry", "System under test", "Endpoint value"],
 "data": [
  ["CN(C)CCCc1ccc(Nc2cnn(C)c(=O)c2Cl)cc1", "Histone acetyltransferase KAT2B (Homo sapiens, UniProt Q92831)", 370]
]}

Request body: readout Kd, system Histone acetyltransferase KAT2B (Homo sapiens, UniProt Q92831), query Cn1ncc(Nc2ccc(CCN)cc2)c(Br)c1=O . Return the value.
14
